Recorded values, source PubChem BioAssay AID1919017.

# Tested on: SW1271 complex spheroids with HUVEC/MSC, growth, % test/control
# Protocol Summary: Anticancer human tumor SW1271 cell line growth inhibition [AhR];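 also: spheroids exposed to agents for 7 days before readout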
# Condition Summary: second compound 1 µM; first compound 10 µM; hits give low values
Endpoint: viability, T/C (%)
A number alone suffices; assume %.

**Q:** Give viability, T/C only, for O=C(C=Cc1cccc(S(=O)(=O)Nc2ccccc2)c1)NO + Cc1cncc(-c2nc(NCCc3c[nH]c4ccccc34)c3ncn(C(C)C)c3n2)c1 , using SW1271 complex spheroids with HUVEC/MSC, growth, % test/control data.
**A:** 15.9

**Q:** Give viability, T/C only, for CC(C)c1c(-c2ccccc2)nc2c(C#N)c[nH]n2c1=O + CC(CO)NC(=O)c1cc(-c2ccc(Cl)cc2)nn(-c2cnn(C)c2)c1=O , using SW1271 complex spheroids with HUVEC/MSC, growth, % test/control data.
**A:** 94.8

**Q:** Give viability, T/C only, for O=C(c1cc(Cc2n[nH]c(=O)c3ccccc23)ccc1F)N1CCN(C(=O)C2CC2)CC1 + Cc1cncc(-c2nc(NCCc3c[nH]c4ccccc34)c3ncn(C(C)C)c3n2)c1 , using SW1271 complex spheroids with HUVEC/MSC, growth, % test/control data.
**A:** 75.8

**Q:** Give viability, T/C only, for COc1cc(Nc2ncc3c(n2)-c2ccc(Cl)cc2C(c2c(F)cccc2OC)=NC3)ccc1C(=O)O + Cc1cncc(-c2nc(NCCc3c[nH]c4ccccc34)c3ncn(C(C)C)c3n2)c1 , using SW1271 complex spheroids with HUVEC/MSC, growth, % test/control data.
**A:** 56.2

**Q:** Give viability, T/C only, for Nc1ccccc1NC(=O)c1ccc(CNC(=O)OCc2cccnc2)cc1 + CC(CO)NC(=O)c1cc(-c2ccc(Cl)cc2)nn(-c2cnn(C)c2)c1=O , using SW1271 complex spheroids with HUVEC/MSC, growth, % test/control data.
**A:** 10.4

**Q:** Give viability, T/C only, for COc1ccc([C@@H](O)c2cc(-c3ncnc4cc(N5CCOCC5)ccc34)c(F)cc2Cl)nn1 + Cc1ccccc1N=Nc1ccc(NC(=O)c2ccnn2C)c(C)c1 , using SW1271 complex spheroids with HUVEC/MSC, growth, % test/control data.
**A:** 40.4

**Q:** Give viability, T/C only, for CC1(C)CCC(CN2CCN(c3ccc(C(=O)NS(=O)(=O)c4ccc(NCC5CCOCC5)c([N+](=O)[O-])c4)c(Oc4cnc5[nH]ccc5c4)c3)CC2)=C(c2ccc(Cl)cc2)C1 + Cc1cncc(-c2nc(NCCc3c[nH]c4ccccc34)c3ncn(C(C)C)c3n2)c1 , using SW1271 complex spheroids with HUVEC/MSC, growth, % test/control data.
**A:** 102

**Q:** Give viability, T/C only, for O=C(C=Cc1cccc(S(=O)(=O)Nc2ccccc2)c1)NO + Cc1ccccc1N=Nc1ccc(NC(=O)c2ccnn2C)c(C)c1 , using SW1271 complex spheroids with HUVEC/MSC, growth, % test/control data.
**A:** 28.4

**Q:** Give viability, T/C only, for COc1cc(C2c3cc4c(cc3C(OC3OC5COC(C)OC5C(O)C3O)C3COC(=O)C23)OCO4)cc(OC)c1O (configuration not stated) + Cc1ccccc1N=Nc1ccc(NC(=O)c2ccnn2C)c(C)c1 , using SW1271 complex spheroids with HUVEC/MSC, growth, % test/control data.
**A:** 35.3

**Q:** Give viability, T/C only, for COc1cccc2c1C(=O)c1c(O)c3c(c(O)c1C2=O)CC(O)(C(=O)CO)CC3OC1CC(N)C(O)C(C)O1 (configuration not stated) + Cc1ccccc1N=Nc1ccc(NC(=O)c2ccnn2C)c(C)c1 , using SW1271 complex spheroids with HUVEC/MSC, growth, % test/control data.
**A:** 4.18

**Q:** Give viability, T/C only, for CC1COCCN1c1cc(C2(S(C)(=N)=O)CC2)nc(-c2ccnc3[nH]ccc23)n1 (configuration not stated) + Cc1cncc(-c2nc(NCCc3c[nH]c4ccccc34)c3ncn(C(C)C)c3n2)c1 , using SW1271 complex spheroids with HUVEC/MSC, growth, % test/control data.
**A:** 62.7

**Q:** Give viability, T/C only, for COc1cc(Nc2ncc3c(n2)-c2ccc(Cl)cc2C(c2c(F)cccc2OC)=NC3)ccc1C(=O)O + Cc1ccccc1N=Nc1ccc(NC(=O)c2ccnn2C)c(C)c1 , using SW1271 complex spheroids with HUVEC/MSC, growth, % test/control data.
**A:** 46.4
